Reported IC50, HIV-1 protease (Human immunodeficiency virus type 1 group M subtype B, UniProt P04585).
Hi! Could you send only the number? It should be in µM, unit omitted.

Look over these answered cases.
> print(dat)
                                   compound  observation.type  display.unit  value.measured
1  CCOC(=O)c1c(C[S+]([O-])c2ccc(F)cc2)n(C2CC2)c2cc(Br)c(O)c(CNC(=N)N)c12 (stereo not drawn)              IC50            µM            43.5
2  CCOC(=O)c1c(CS(=O)(=O)c2ccc(F)c(F)c2)n(C2CC2)c2cc(Br)c(O)c(Cn3ccnc3)c12              IC50            µM            21.3

**Query** Give reported IC50 for CCOC(=O)c1c(C[S+]([O-])c2ccc(F)cc2)n(C)c2cc(Br)c(O)c(CNC(=N)N)c12 (stereo not drawn) (HIV-1 protease (Human immunodeficiency virus type 1 group M subtype B, UniProt P04585))
**Result** 133

###

- target_desc: HIV-1 protease (Human immunodeficiency virus type 1 group M subtype B)
- Construct: The genetically engineered target enzyme (HIV-1 protease, preserved at −85° C.)
- test_method_notes: Anti-HIV-1 protease activity (fluorescence labeled substrate)
- Format: biochemical
- condition_notes: sample concentration 10 ug/ml
Where a name gives a salt, the structure may show the parent alone.
compounds and their reported inhibition ratio at 10 ug/ml

compound	observation_type	value_measured
CCOC(=O)c1c(CSc2ccc(F)cc2)n(C2CC2)c2cc(Br)c(O)c(CN3CCN(C)CC3)c12 [Example 19, dihydrochloride]	inhibition ratio at 10 ug/ml	−8.9

**Query** Provide inhibition ratio at 10 ug/ml value for the following compound: CCOC(=O)c1c(C[S+]([O-])c2ccc(F)cc2)n(C2CC2)c2cc(Br)c(O)c(CNC(=N)N)c12 (stereo not shown)
**Result** 4.8

**Query** Provide inhibition ratio at 10 ug/ml value for the following compound: CCOC(=O)c1c(C[S+]([O-])c2ccccc2)n(C)c2cc(Br)c(O)c(Cn3ccnc3)c12 (stereo not shown)
**Result** −1.5

**Query** Provide inhibition ratio at 10 ug/ml value for the following compound: CCOC(=O)c1c(C[S+]([O-])c2ccc(F)c(F)c2)n(C2CC2)c2cc(Br)c(O)c(CN3CCN(C)CC3)c12 (stereo not shown) [Example 67, dihydrochloride]
**Result** 9.4

**Query** Provide inhibition ratio at 10 ug/ml value for the following compound: CCOC(=O)c1c(CSc2ccc(F)cc2)n(C)c2cc(Br)c(O)c(CN3CCN(C)CC3)c12 [Example 17, dihydrochloride]
**Result** −13.0

**Query** Provide inhibition ratio at 10 ug/ml value for the following compound: CCOC(=O)c1c(C[S+]([O-])c2ccc(F)cc2)n(C)c2cc(Br)c(O)c(CN3CCOCC3)c12 (stereo not shown)
**Result** 15.9

**Query** Provide inhibition ratio at 10 ug/ml value for the following compound: CCOC(=O)c1c(C[S+]([O-])c2ccccc2)n(C)c2cc(Br)c(O)c(Cn3ccnc3C)c12 (stereo not shown)
**Result** 7.1

###

- Tested on: 2.2.15 cells
- test_method_notes: Cytotoxicity (TC50) in 2.2.15 cells
- Type: cell-based
Counter-ions that a name gives are not always drawn.
observation_type: TC50
State the value, then name its unit.

> print(dat)
                                   molecule  value.measured
1  CCOC(=O)c1c(C[S+]([O-])c2c(Cl)cccc2Cl)n(C2CC2)c2cc(Br)c(O)c(Cn3ccnc3C)c12 (centres unmarked) [Example 137]     160.2 µg/mL

**Query** Provide TC50 value for the following molecule: CCOC(=O)c1c(C[S+]([O-])Cc2cscn2)n(C2CC2)c2cc(Br)c(O)c(CN(C)C)c12 (centres unmarked) [Example 52, dihydrochloride]
**Result** 64.15 µg/mL

**Query** Provide TC50 value for the following molecule: CCOC(=O)c1c(C[S+]([O-])c2ccc(F)cc2)n(C2CC2)c2cc(Br)c(O)c(Cn3ccnc3C)c12 (centres unmarked) [Example 138]
**Result** 18.52 µg/mL

**Query** Provide TC50 value for the following molecule: CCOC(=O)c1c(CS(=O)(=O)c2ccc(C)cc2)n(C)c2ccc(O)c(Cn3ccnc3)c12 [Example 164]
**Result** 17.7 µg/mL

###

- Test system: 2.2.15 cells
- test_method_notes: Cytotoxicity (TC50) in 2.2.15 cells
- Type: cell-based
compounds and their reported TC50
Hi! Could you send only the number? It should be in µg/mL, unit omitted.

Look over these answered cases.
> print(dat)
                                   compound  value.measured
1  CCOC(=O)c1c(CS(=O)(=O)Cc2ccc(F)cc2)n(C)c2cc(Br)c(O)c(Cn3ccnc3)c12           21.39
2  CCOC(=O)c1c(CS(=O)(=O)Cc2ccc(F)cc2)n(C)c2cc(Br)c(O)c(CN3CCCC3)c12           24.69
3  CCOC(=O)c1c(C[S+]([O-])Cc2ccc(F)cc2)n(C)c2cc(Br)c(O)c(Cn3ccnc3C)c12 (stereo not shown)           53.42

# ---- query compound ----
**Query** Provide TC50 value for the following compound: CCOC(=O)c1c(C[S+]([O-])Cc2cccc(F)c2)n(C)c2cc(Br)c(O)c(CN3CCOCC3)c12 (stereo not shown)
**Result** 21.39

###

- Test system: HBV DNA
- test_method_notes: In vitro anti-HBV activity: replication of HBV DNA in 2.2.15 cells (dot hybridization)
- Type: cell-based, Hepatitis B virus (HBV)
- condition_notes: selectivity index
Structures can show the parent of a compound that is named as a salt.
Classification scheme (DNA replication SI): lower segment (below 4), middle segment (4 to below 7), upper segment (7 or more)

Use these answered entries as a reference point.
molecule	target_desc	assigned_category
CCOC(=O)c1c(C[S+]([O-])Cc2ccc(F)cc2)n(C)c2cc(Br)c(O)c(Cn3ccnc3C)c12 (centres unmarked)	HBV DNA	upper segment
CCOC(=O)c1c(CS(=O)(=O)Cc2ccccc2F)n(C2CC2)c2cc(Br)c(O)c(Cn3ccnc3C)c12	HBV DNA	lower segment

**Query** Which DNA replication SI category applies to CCOC(=O)c1c(C[S+]([O-])c2ccc(F)cc2)n(C2CC2)c2cc(Br)c(O)c(Cn3ccnc3C)c12 (centres unmarked) here?
**Result** lower segment

**Query** Which DNA replication SI category applies to CCOC(=O)c1c(C[S+]([O-])c2ccc(C(F)(F)F)cc2)n(C)c2cc(Br)c(O)c(Cn3ccnc3)c12 (centres unmarked) here?
**Result** middle segment

**Query** Which DNA replication SI category applies to CCOC(=O)c1c(C[S+]([O-])Cc2ccccc2)n(C2CC2)c2cc(Br)c(O)c(Cn3ccnc3)c12 (centres unmarked) here?
**Result** middle segment

**Query** Which DNA replication SI category applies to CCOC(=O)c1c(C[S+]([O-])c2ccc(F)c(F)c2)n(C2CC2)c2cc(Br)c(O)c(CN3CCN(C)CC3)c12 (centres unmarked) [Example 67, dihydrochloride] here?
**Result** middle segment

**Query** Which DNA replication SI category applies to CCOC(=O)c1c(C[S+]([O-])Cc2ccco2)n(C)c2cc(Br)c(O)c(CN3CCCC3)c12 (centres unmarked) here?
**Result** lower segment

**Query** Which DNA replication SI category applies to CCOC(=O)c1c(CS(=O)(=O)Cc2ccco2)n(C2CC2)c2ccc(O)c(CN3CCCC3)c12 here?
**Result** upper segment

**Query** Which DNA replication SI category applies to CCOC(=O)c1c(C[S+]([O-])Cc2ccc(F)cc2)n(C)c2cc(Br)c(O)c(CN(C)C)c12 (centres unmarked) here?
**Result** lower segment

**Query** Which DNA replication SI category applies to CCOC(=O)c1c(C[S+]([O-])Cc2cccc(F)c2)n(C)c2cc(Br)c(O)c(CN3CCOCC3)c12 (centres unmarked) here?
**Result** upper segment

**Query** Which DNA replication SI category applies to CCOC(=O)c1c(C[S+]([O-])c2ccccc2F)n(C)c2cc(Br)c(O)c(Cn3ccnc3)c12 (centres unmarked) here?
**Result** middle segment

**Query** Which DNA replication SI category applies to CCOC(=O)c1c(CSc2ccc(F)cc2)n(C)c2cc(Br)c(O)c(CN3CCN(C)CC3)c12 [Example 17, dihydrochloride] here?
**Result** lower segment

**Query** Which DNA replication SI category applies to CCOC(=O)c1c(C[S+]([O-])c2ccccc2)n(C)c2cc(Br)c(O)c(Cn3cncn3)c12 (centres unmarked) here?
**Result** lower segment
